# assayDetails: Plasma pharmacokinetics of CR665 after single IV infusion in human subjects
# experimentalContext: male, human, plasma, iv, 0.06 mg/kg, Cmax, males, 5-minute IV infusion, geometric mean
# Experimental: This clinical study was conducted as a double blind, placebo controlled, ascending single intravenous (IV) dose, sequential group study. […] Plasma and urine samples for the analysis of CR665 and N oxide metabolite were prepared by solid phase extraction. The centrifuged eluates were quantified by liquid chromatography with tandem mass spectrometric detection (LC MS/MS). The lower limit of quantification was 1 ng/mL. […]
Structures can show the parent of a compound that is named as a salt. Non-standard residues stand in square brackets, D forms with d. Residues, ends and D or L forms follow the SMILES beside them. *: point of attachment. NH(4-picolyl) = c1cc(CN*)ccn1; dNle = CCCC[C@@H](N)C(=O)O

compound	Cmax (ng/mL)
CCCC[C@@H](NC(=O)[C@@H](Cc1ccccc1)NC(=O)[C@H](N)Cc1ccccc1)C(=O)N[C@H](CCCNC(=N)N)C(=O)NCc1ccncc1 [CR665, acetate salt] (H-[dF][dF][dNle][dR]-{NH(4-picolyl)})	624

Where do the numbers come from? From patent US8217000B2.
